B1: FBF1 (parent)
chain: YQRPQDSEDMWGDEDFTFGAYQPT

- Variants of: B1
- assay_notes: protein stability index of a GFP-peptide fusion (GPS, HEK-293T) (PSI 1-6); higher = more stable;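 also: lentivirally expressed fusions sorted by FACS into six bins by GFP to DsRed ratio, PSI derived from sequencing read proportions per bin multiplied by bin number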
- condition_parameters: c terminus: a fixed tail appended
recorded_metric: protein stability index
Response field accepts a number only; no unit should be typed.

Memo: T24N , reported protein stability index: 3.02

Memo: Q5G , reported protein stability index: 2.99

Memo: A20G , reported protein stability index: 2.91

Memo: Q22D , reported protein stability index: 3.06
